This listing pairs binders with measured Kd.
Target: T1, PUF4 RNA-binding domain (Saccharomyces cerevisiae, UniProt P25339 537-888)
T1 sequence: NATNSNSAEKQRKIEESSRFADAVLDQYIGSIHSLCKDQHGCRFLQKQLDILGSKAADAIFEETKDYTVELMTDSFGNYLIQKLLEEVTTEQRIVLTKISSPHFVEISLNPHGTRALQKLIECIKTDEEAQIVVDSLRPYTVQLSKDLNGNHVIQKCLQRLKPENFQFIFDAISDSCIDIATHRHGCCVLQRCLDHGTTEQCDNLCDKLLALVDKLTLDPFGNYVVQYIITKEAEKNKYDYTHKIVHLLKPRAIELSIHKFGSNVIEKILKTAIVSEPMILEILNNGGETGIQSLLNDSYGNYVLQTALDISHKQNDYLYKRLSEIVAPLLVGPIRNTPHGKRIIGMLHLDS
Assay: Mg; RNA-MaP; 20 mM Na-HEPES pH 7.4, 30 mM KOAc, 0.75 mM MgCl2, 0.1% Tween-20, 5% glycerol, 0.1 mg/mL BSA, 2 mM DTT; 25 C; 0.0125-409.6 nM protein
Settings: tags: N-His6-TEV cleaved; C-SNAP kept, Cy3B-labelled; label: tethered on chip by stalled RNA polymerase
Numeric only. Scale: nM

What the record says about Ic_S4_P4E.1_K4.1_C4.1_H4.1_A4.1_[T5G]_[A6T]_F4.1_[A9T]_T4.1 (ssRNA) RNA: UUUGACAACUGAUCGUUCUUUCUUGUAGUUUUUUCUUUCUCGAUCAGUUGUCUUU : Kd is 55.8

What the record says about Ic_S2_P3E.1_K3.1_C3.1_H3.1_A3.1_[T5A]_[A6C]_F3.1_[T7C]_[A8T]_T3.1 (ssRNA) RNA: UUUGAUUAAUAUGAUAUCGUUCUUUCUUGUAACCUUUCUUUCUCGAUAUCAUAUUAAUCUUU : Kd is 23.5

What the record says about UCUCUUCCUAUAUUAUUAAGUCUCUU (ssRNA) [Id_ii_S1_P5E.3_K5.2_C5.2_[T-1C]_H5.2_A5.1_F5.1_T5.2_[T11A]_[A12G]] : Kd is 971

What the record says about UCUCUUAUUGUAUAUAUCUCUCUU (ssRNA) [Id_ii_S1_P3E.2_K3.1_C3.2_[C-2A]_H3.1_A3.1_F3.1_T3.2_[A10C]] : Kd is 8.52

What the record says about Ic_S2_P5E.1_K5.1_C5.1_H5.1_A5.1_[T6C]_[A7C]_F5.1_[T8G]_[T9C]_[A10T]_T5.1 (ssRNA) RNA: UUUGAUUAAUAUGAUAUCGUUCUUUCUUGUAUCCGCUUUCUUUCUCGAUAUCAUAUUAAUCUUU : Kd is 596

What the record says about UCUCUUCAUAUAUUAUCUCUU (ssRNA) [Ib_S1_P4E.1_K4.1_C4.1_H4.1_[T1C]_[G2A]_A4.1_F4.1_T4.1] : Kd is 487

What the record says about UCUCUUUGUAGUUAUCUCUU (ssRNA) [Ib_S1_P3E.1_K3.1_C3.1_H3.1_A3.1_[T5G]_[A6T]_F3.1_T3.1] : Kd is 1020

What the record says about Ic_S4_P3E.1_K3.1_C3.1_H3.1_A3.1_[T5G]_[A6C]_F3.1_[T7A]_[A8C]_T3.1 (ssRNA) RNA: UUUGACAACUGAUCGUUCUUUCUUGUAGCACUUCUUUCUCGAUCAGUUGUCUUU : Kd is 243

What the record says about ACAAACCUUAUAUUAUUAAUACAAAC (ssRNA) [Id_ii_S3_P5E.3_K5.2_C5.2_H5.2_A5.1_F5.1_T5.2_[T11A]_[A12T]] : Kd is 459

All values here come from paper PMC9352680.
